Each entry below carries its reported log2(corrected fold change).
# Measured On: eIF2Bα (Homo sapiens, UniProt Q14232)
# Construct: made in house; host or cells: E. coli BL21(DE3)
# Assay Details: MIDAS (mass spectrometry integrated with equilibrium dialysis) metabolite binding screen
# Condition Set: MIDAS metabolite binding screen with eIF2Bα; sheet "eIF2Ba"
Quantity Measured: log2(corrected fold change)

1) Cc1cc2nc3c(=O)[nH]c(=O)nc-3n(C[C@H](O)[C@H](O)[C@H](O)COP(=O)(O)OP(=O)(O)OC[C@H]3O[C@@H](n4cnc5c(N)ncnc54)[C@H](O)[C@@H]3O)c2cc1C [Flavin adenine dinucleotide]    -0.0588
2) OC[C@H]1O[C@H](O[C@H]2O[C@H](CO)[C@@H](O)[C@H](O)[C@H]2O)[C@H](O)[C@@H](O)[C@@H]1O [D-Trehalose]    -0.02052
3) CC(=O)CC(=O)CCC(=O)O [4,6-Dioxoheptanoic acid]    -0.02657
4) N[C@@H](CS(=O)(=O)O)C(=O)O [L-Cysteic acid]    0.001606
5) NCCCC(=O)O [4-Aminobutanoate]    0.0213
6) Cn1cncc1C[C@H](NC(=O)CCN)C(=O)O [Anserine]    -0.02715
7) Nc1c(O)cccc1C(=O)O [3-Hydroxyanthranilic acid]    -0.02136
8) O=C(O)[C@@H](O)[C@H](O)[C@H](O)[C@@H](O)C(=O)O [D-galactaric acid]    0.01388
9) CCC(C(=O)O)C(=O)O [Ethylmalonic acid]    -0.03876
10) CC(=O)N[C@@H]1C(O)O[C@H](CO)[C@@H](O)[C@@H]1O (stereo partly drawn) [N-Acetyl-D-mannosamine]    0.03658
11) CC(C)(CO)[C@@H](O)C(=O)NCCC(=O)O [Pantothenic acid]    0.0165
12) O=C(O)c1cc(O)c2cccc(O)c2n1 [Xanthurenic acid]    -0.07533
13) C[S+](CC[C@H](N)C(=O)O)C[C@H]1O[C@@H](n2cnc3c(N)ncnc32)[C@H](O)[C@@H]1O (stereo partly drawn) [S-(5-Adenosyl)-L-methionine]    0.006892
14) Nc1nc2c(ncn2[C@H]2C[C@H](O)[C@@H](COP(=O)(O)OP(=O)(O)O)O2)c(=O)[nH]1 [2-Deoxyguanosine 5-diphosphate]    -0.09804
15) CC(=O)N[C@H]1[C@H]([C@H](O)[C@H](O)CO)OC(O)(C(=O)O)C[C@@H]1O (stereo partly drawn) [N-Acetylneuraminic acid]    -0.0313
16) CC(=O)NCC(=O)O [Acetylamino-acetic acid]    0.03921
17) O=C(O)COP(=O)(O)O [2-Phosphoglycolic acid]    0.0426
18) CC(=O)N[C@H]1C(OP(=O)(O)O)O[C@H](CO)[C@@H](O)[C@@H]1O (stereo partly drawn) [N-Acetyl-D-glucosamine 1-phosphate]    -0.08166
19) Cc1ncc(CO)c(C(=O)O)c1O [4-Pyridoxic acid]    0.06772
20) CC(=O)N[C@H]1C(O)O[C@H](COP(=O)(O)O)[C@@H](O)[C@@H]1O (stereo partly drawn) [N-Acetyl-D-glucosamine 6-phosphate]    -0.009906
21) N[C@@H](COP(=O)(O)O)C(=O)O [O-Phospho-L-serine]    0.01938
22) CC(O)(CC(=O)O)CC(=O)O [3-Hydroxy-3-methylglutaric acid]    0.0406
23) C[C@H](O)C(=O)O [L-Lactic acid]    -0.02892
24) C[N+](C)(C)CCOP(=O)(O)OP(=O)([O-])OC[C@H]1O[C@@H](n2ccc(N)nc2=O)[C@H](O)[C@@H]1O [Cytidine 5-diphosphocholine]    -0.000615
25) CC(O)(CC(=O)O)CC(=O)SCCNC(=O)CCNC(=O)[C@H](O)C(C)(C)COP(=O)(O)OP(=O)(O)OC[C@H]1O[C@@H](n2cnc3c(N)ncnc32)[C@H](O)[C@@H]1OP(=O)(O)O (stereo partly drawn) [3-Hydroxy-3-methylglutaryl coenzyme A]    0.00866
26) Cc1ncc(CO)c(CN)c1O [Pyridoxamine]    0.0724
27) Nc1ncnc2c1ncn2C1CC(O)C(CO)O1 (stereo not drawn) [2-Deoxyadenosine]    0.4061
28) O=C(O)[C@@H]1C[C@@H](O)CN1 [Trans-4-Hydroxy-L-proline]    0.008003
29) NC(=O)NCCC[C@H](N)C(=O)O [L-Citrulline]    -0.01086
30) CC(=O)N[C@H]1[C@@H](OP(=O)(O)OP(=O)(O)OC[C@H]2O[C@@H](n3ccc(=O)[nH]c3=O)[C@H](O)[C@@H]2O)O[C@H](CO)[C@@H](O)[C@@H]1O [UDP-GlcNAc]    -0.0409
31) C[C@H](N)C(=O)O [L-Alanine]    0.0004222
32) OC[C@H]1O[C@@H](n2cnc3c(O)nc(O)nc32)[C@H](O)[C@@H]1O [Xanthosine]    0.0001312
33) Nc1ncnc2c1ncn2[C@@H]1O[C@H](COP(=O)(O)OP(=O)(O)O)[C@@H](O)[C@H]1O [ADP, Adenosine diphosphate]    -0.09804

====

# Measured On: eIF2Bα (Homo sapiens)
# Construct: made in house; host or cells: E. coli BL21(DE3)
# Sequence (Q14232 1-305): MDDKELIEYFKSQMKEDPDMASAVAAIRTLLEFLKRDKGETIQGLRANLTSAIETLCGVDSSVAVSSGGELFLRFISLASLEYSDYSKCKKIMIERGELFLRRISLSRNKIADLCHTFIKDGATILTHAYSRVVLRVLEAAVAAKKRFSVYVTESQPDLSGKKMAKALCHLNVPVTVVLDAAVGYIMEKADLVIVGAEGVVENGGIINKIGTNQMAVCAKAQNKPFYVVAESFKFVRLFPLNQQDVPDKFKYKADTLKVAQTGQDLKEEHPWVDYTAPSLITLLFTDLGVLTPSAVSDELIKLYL
# Assay Details: MIDAS (mass spectrometry integrated with equilibrium dialysis) metabolite binding screen
# Condition Set: MIDAS metabolite binding screen with eIF2Bα; sheet "eIF2Ba"
We label by threshold. Values of log2(corrected fold change) strictly beneath -0.02 are Fulfilled. Values of -0.02 and up are Not fulfilled.

1) O=C(O)c1cc(O)ccc1O [2,5-Dihydroxybenzoic acid]    Not fulfilled
2) Cn1cnc(CCN)c1 [1-Methylhistamine]    Fulfilled
3) O=C[C@H](O)[C@@H](O)[C@H](O)[C@H](O)C(=O)O [D-Glucuronic acid]    Not fulfilled
4) N[C@@H](C[C@@H](O)C(=O)O)C(=O)O [(4R)-4-Hydroxy-L-glutamic acid]    Fulfilled
5) CCCCCC(=O)NCC(=O)O [N-Hexanoyl-glycine]    Fulfilled
6) Cc1ncc(C[n+]2csc(CCO)c2C)c(N)n1 [Thiamine]    Not fulfilled
7) CC(=O)NCCCC[C@H](N)C(=O)O [Ne-Acetyl-lysine]    Fulfilled
8) O=C1OC(C(O)CO)C(=O)C1=O (centres unmarked) [Dehydroascorbic acid]    Not fulfilled
9) Cc1ncc(COP(=O)(O)O)c(C=O)c1O [Pyridoxal 5-phosphate]    Not fulfilled
10) N[C@@H](CO)C(=O)O [L-Serine]    Fulfilled
11) OC[C@@H](O)[C@@H](O)[C@@H](O)CO [Adonitol]    Not fulfilled
12) C[C@H](O)[C@@H](O)[C@@H](O)[C@H](O)C=O [L-Fucose]    Fulfilled
13) Nc1nc2c(ncn2[C@@H]2O[C@H](COP(=O)(O)OP(=O)(O)O[C@H]3O[C@H](CO)[C@@H](O)[C@H](O)[C@@H]3O)[C@@H](O)[C@H]2O)c(=O)[nH]1 [Guanosine diphosphate mannose]    Not fulfilled
14) O=c1ccn([C@@H]2O[C@H](COP(=O)(O)OP(=O)(O)OP(=O)(O)O)[C@@H](O)[C@H]2O)c(=O)[nH]1 [Uridine 5-triphosphate]    Fulfilled
15) N[C@@H](Cc1ccccc1)C(=O)O [L-Phenylalanine]    Fulfilled
16) O=C(O)CC(O)(CC(=O)O)C(=O)O [Citric acid]    Not fulfilled
17) O=C(O)C[C@H](O)C(=O)O [L-Malic acid]    Not fulfilled
18) O=P(O)(O)OCC1OC(OP(=O)(O)OP(=O)(O)O)C(O)C1O [5-Phospho-D-ribose 1-diphosphate]    Not fulfilled
19) O=C(O)CCCC(=O)O [Glutaric acid]    Fulfilled
20) N[C@H](CCC(=O)O)C(=O)O [D-Glutamic acid]    Not fulfilled

====

# Measured On: eIF2Bα (Homo sapiens)
# Construct: made in house; host or cells: E. coli BL21(DE3)
# Assay Details: MIDAS (mass spectrometry integrated with equilibrium dialysis) metabolite binding screen
# Condition Set: MIDAS screen, sheet eIF2Ba; metabolites screened in pools 1-4; p-value and q-value given
Item-by-item account of log2(corrected fold change)
Quantity Measured: log2(corrected fold change)

1) CC(=O)N[C@@H](C)C(=O)O    0.07527
2) Nc1nc2c(c(=O)[nH]1)N=C(CNc1ccc(C(=O)N[C@@H](CCC(=O)O)C(=O)O)cc1)CN2 [Dihydrofolic acid]    -0.03543
3) CC(=O)N[C@H]1[C@H](O[C@H]2[C@H](O)[C@@H](NC(C)=O)C(O)O[C@@H]2CO)O[C@H](CO)[C@@H](O)[C@@H]1O (stereo partly shown)    0.08913
4) CC(=O)OCC[N+](C)(C)C    -0.07879
